test name: in vitro
condition set: Cercopithecus aethiops (monkey), Vero76 CC50
# Lookup of reported CC50 keyed by entry

[
  {
    "molecule": "COc1ccc(S(=O)(=O)n2cc(CNc3ccc(Br)cc3)c(-c3ccc(Cl)cc3)n2)cc1",
    "CC50": "> 100 µM"
  },
  {
    "molecule": "O=S(=O)(c1ccccc1)n1cc(CNc2ccc(Cl)cc2)c(-c2ccc(Br)cc2)n1",
    "CC50": "90 µM"
  },
  {
    "molecule": "Nc1nc2c(ncn2COCCO)c(=O)[nH]1 [ACG, Acyclovir, reference compound]",
    "CC50": "> 100 µM"
  },
  {
    "molecule": "O=S(=O)(c1ccccc1)n1cc(CNc2ccc(Cl)cc2)c(-c2ccc(Cl)cc2)n1",
    "CC50": "> 100 µM"
  },
  {
    "molecule": "COc1ccc(S(=O)(=O)n2cc(CNc3ccc(C)cc3)c(-c3ccc(Cl)cc3)n2)cc1",
    "CC50": "> 100 µM"
  },
  {
    "molecule": "O=S(=O)(c1ccccc1)n1cc(CNc2ccccc2)c(-c2ccc(Br)cc2)n1",
    "CC50": "87 µM"
  },
  {
    "molecule": "COc1ccc(S(=O)(=O)n2cc(CNc3ccc(C)cc3)c(-c3ccc(C)cc3)n2)cc1",
    "CC50": "> 100 µM"
  },
  {
    "molecule": "Cc1cc(CCCOc2c(C)cc(-c3noc(C(F)(F)F)n3)cc2C)on1 [Pleconaril, reference compound]",
    "CC50": "70 µM"
  }
]

----------
What follows is a record of SI CC50/EC50 (RSV) for RSV.

[
  {
    "compound": "Cc1ccc(NCc2cn(S(=O)(=O)c3ccccc3)nc2-c2ccc(Cl)cc2)cc1",
    "SI CC50/EC50 (RSV)": ">4.2"
  },
  {
    "compound": "O=S(=O)(c1ccccc1)n1cc(CNc2ccc(Cl)cc2)c(-c2ccc(Cl)cc2)n1",
    "SI CC50/EC50 (RSV)": ">11.8"
  },
  {
    "compound": "O=S(=O)(c1ccccc1)n1cc(CNc2ccccc2)c(-c2ccc(Cl)cc2)n1",
    "SI CC50/EC50 (RSV)": ">8.5"
  },
  {
    "compound": "Cc1ccc(NCc2cn(S(=O)(=O)c3ccccc3)nc2-c2ccc(C)cc2)cc1",
    "SI CC50/EC50 (RSV)": ">8.3"
  },
  {
    "compound": "O=S(=O)(c1ccccc1)n1cc(CNc2ccc(Br)cc2)c(-c2ccc(Cl)cc2)n1",
    "SI CC50/EC50 (RSV)": ">7.2"
  },
  {
    "compound": "Cc1ccc(-c2nn(S(=O)(=O)c3ccccc3)cc2CNc2ccc(Cl)cc2)cc1",
    "SI CC50/EC50 (RSV)": ">7.7"
  },
  {
    "compound": "O=S(=O)(c1ccccc1)n1cc(CNc2ccc(Br)cc2)c(-c2ccc(Br)cc2)n1",
    "SI CC50/EC50 (RSV)": 5.7
  },
  {
    "compound": "O=S(=O)(c1ccccc1)n1cc(CNc2ccccc2)c(-c2ccc(Br)cc2)n1",
    "SI CC50/EC50 (RSV)": 4.9
  },
  {
    "compound": "Cc1ccc(NCc2cn(S(=O)(=O)c3ccccc3)nc2-c2ccc(Br)cc2)cc1",
    "SI CC50/EC50 (RSV)": 7.4
  },
  {
    "compound": "O=c1cnn([C@@H]2O[C@H](CO)[C@@H](O)[C@H]2O)c(=O)[nH]1 [6-Azauridine, reference compound]",
    "SI CC50/EC50 (RSV)": 7.2
  },
  {
    "compound": "NC(=O)c1ncn([C@@H]2O[C@H](CO)[C@@H](O)[C@H]2O)n1 [Ribavirin, reference compound]",
    "SI CC50/EC50 (RSV)": ">2.7"
  },
  {
    "compound": "O=S(=O)(c1ccccc1)n1cc(CNc2ccc(Cl)cc2)c(-c2ccc(Br)cc2)n1",
    "SI CC50/EC50 (RSV)": 5.9
  },
  {
    "compound": "Cc1ccc(-c2nn(S(=O)(=O)c3ccccc3)cc2CNc2ccccc2)cc1",
    "SI CC50/EC50 (RSV)": ">8.0"
  },
  {
    "compound": "Cc1ccc(-c2nn(S(=O)(=O)c3ccccc3)cc2CNc2ccc(Br)cc2)cc1",
    "SI CC50/EC50 (RSV)": ">7.4"
  }
]

----------
What follows is a record of SI CC50/EC50 (BVDV) for BVDV.

[
  {
    "compound": "O=S(=O)(c1ccccc1)n1cc(CNc2ccc(Cl)cc2)c(-c2ccc(Cl)cc2)n1",
    "SI CC50/EC50 (BVDV)": ">2.3"
  },
  {
    "compound": "NC(=O)c1ncn([C@@H]2O[C@H](CO)[C@@H](O)[C@H]2O)n1 [Ribavirin, reference compound]",
    "SI CC50/EC50 (BVDV)": 3.4
  },
  {
    "compound": "COc1ccc(S(=O)(=O)n2cc(CNc3ccc(Br)cc3)c(-c3ccc(C)cc3)n2)cc1",
    "SI CC50/EC50 (BVDV)": ">5.1"
  },
  {
    "compound": "COc1ccc(S(=O)(=O)n2cc(CNc3ccc(Cl)cc3)c(-c3ccc(Br)cc3)n2)cc1",
    "SI CC50/EC50 (BVDV)": ">5.0"
  }
]

----------
[
  {
    "given smiles": "Cc1ccc(NCc2cn(S(=O)(=O)c3ccccc3)nc2-c2ccc(Br)cc2)cc1",
    "melting point": "112 °C"
  },
  {
    "given smiles": "Cc1ccc(NCc2cn(S(=O)(=O)c3ccccc3)nc2-c2ccc(C)cc2)cc1",
    "melting point": "123 to 124 °C"
  },
  {
    "given smiles": "Cc1ccc(NCc2cn(S(=O)(=O)c3ccccc3)nc2-c2ccc(Cl)cc2)cc1",
    "melting point": "100 to 101 °C"
  },
  {
    "given smiles": "Cc1ccc(-c2nn(S(=O)(=O)c3ccccc3)cc2CNc2ccccc2)cc1",
    "melting point": "128 to 129 °C"
  },
  {
    "given smiles": "O=S(=O)(c1ccccc1)n1cc(CNc2ccc(Cl)cc2)c(-c2ccc(Cl)cc2)n1",
    "melting point": "142 to 143 °C"
  }
]

----------
Tested on: DENV-2

[
  {
    "molecule": "Clc1ccc(NCc2cn(-c3ccccc3)nc2-c2ccc(Cl)cc2)cc1",
    "SI CC50/EC50 (DENV-2)": 5.0
  },
  {
    "molecule": "Cc1ccc(NCc2cn(-c3ccccc3)nc2-c2ccccc2)cc1",
    "SI CC50/EC50 (DENV-2)": ">8.9"
  },
  {
    "molecule": "Cc1ccc(-c2nn(-c3ccccc3)cc2CNc2ccccc2)cc1",
    "SI CC50/EC50 (DENV-2)": ">3.3"
  },
  {
    "molecule": "Clc1ccc(NCc2cn(-c3ccccc3)nc2-c2ccccc2)cc1",
    "SI CC50/EC50 (DENV-2)": ">7.7"
  },
  {
    "molecule": "Brc1ccc(-c2nn(-c3ccccc3)cc2CNc2ccccc2)cc1",
    "SI CC50/EC50 (DENV-2)": ">4.5"
  },
  {
    "molecule": "Cc1ccc(NCc2cn(-c3ccccc3)nc2-c2ccc(C(F)(F)F)cc2)cc1",
    "SI CC50/EC50 (DENV-2)": 6.2
  },
  {
    "molecule": "Cc1ccc(NCc2cn(-c3ccccc3)nc2-c2ccc(Cl)cc2)cc1",
    "SI CC50/EC50 (DENV-2)": ">9.0"
  },
  {
    "molecule": "Clc1ccc(-c2nn(-c3ccccc3)cc2CNc2ccc(Br)cc2)cc1",
    "SI CC50/EC50 (DENV-2)": ">9.1"
  },
  {
    "molecule": "C[C@@]1(O)[C@H](O)[C@@H](CO)O[C@H]1n1cnc2c(=O)[nH]c(N)nc21 [NM 108, 2′-C-methylguanosin, reference compound]",
    "SI CC50/EC50 (DENV-2)": 50.0
  },
  {
    "molecule": "Brc1ccc(NCc2cn(-c3ccccc3)nc2-c2ccc(Br)cc2)cc1",
    "SI CC50/EC50 (DENV-2)": ">4.3"
  },
  {
    "molecule": "Cc1ccc(-c2nn(-c3ccccc3)cc2CNc2ccc(Cl)cc2)cc1",
    "SI CC50/EC50 (DENV-2)": ">8.3"
  },
  {
    "molecule": "Clc1ccc(NCc2cn(-c3ccccc3)nc2-c2ccc(Br)cc2)cc1",
    "SI CC50/EC50 (DENV-2)": ">7.8"
  }
]

Source listed as paper PMC6465675.
